Cited source: ChEMBL document CHEMBL1136757

Target: Aldo-keto reductase family 1 member B1 (Rattus norvegicus)
OBSERVABLE: pIC50
pIC50 is defined as minus the log10 of a concentration measured in mol/L.

Illustrative cases are given below, each with its answer.
{"columns": ["COMPOUND", "pIC50"],
 "data": [
  ["N#CC(C(=O)O)C1C(=O)Nc2ccc(Br)cc21 (centres undefined)", 6.42],
  ["COc1ccc(CN2C(=O)C(C(C#N)C(=O)O)c3cc(F)ccc32)cc1 (centres undefined)", 6.96]
]}

For this compound ( Cc1ccc(CN2C(=O)C(C(C#N)C(=O)O)c3cc(Br)ccc32)cc1 (centres undefined) ), measured pIC50 is 6.60

Lookup result for N#CC(C(=O)O)C1C(=O)N(Cc2ccccc2)c2ccc(F)cc21 (centres undefined) ; measured pIC50: 6.74

Please fill in: pIC50 reported for COc1ccc2c(c1)C(C(C#N)C(=O)O)C(=O)N2 (centres undefined) = 5.27

# pIC50 (compound: N#CC(C(=O)O)C1C(=O)N(CCCl)c2ccc(F)cc21 (centres undefined) ) is 5.87

Measured pIC50, N#CC(C(=O)O)C1C(=O)Nc2ccc([N+](=O)[O-])cc21 (centres undefined) : 5.92

Form field pIC50, entry N#CC(C(=O)O)C1C(=O)N(Cc2ccc(F)cc2)c2ccccc21 (centres undefined) : 6.24

// field: pIC50; key: N#CC(C(=O)O)C1C(=O)N(Cc2ccc(C(F)(F)F)cc2)c2ccccc21 (centres undefined) ; value = 6.24
